System under test: 5-HT2A (Rattus norvegicus (Rat), UniProt P14842)
Sequence (P14842 whole entry): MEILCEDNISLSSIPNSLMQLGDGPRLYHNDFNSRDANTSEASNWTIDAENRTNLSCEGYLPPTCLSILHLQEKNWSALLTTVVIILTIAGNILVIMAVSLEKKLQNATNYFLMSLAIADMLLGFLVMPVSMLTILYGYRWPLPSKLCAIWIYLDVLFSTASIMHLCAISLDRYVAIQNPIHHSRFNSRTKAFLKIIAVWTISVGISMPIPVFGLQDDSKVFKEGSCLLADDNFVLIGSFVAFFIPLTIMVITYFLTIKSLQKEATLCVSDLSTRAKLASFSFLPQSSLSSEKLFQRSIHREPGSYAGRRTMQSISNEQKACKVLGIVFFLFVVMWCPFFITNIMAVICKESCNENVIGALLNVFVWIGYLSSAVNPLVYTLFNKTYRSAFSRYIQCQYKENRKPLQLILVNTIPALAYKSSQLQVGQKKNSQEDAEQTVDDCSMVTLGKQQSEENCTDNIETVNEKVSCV
Assay details: 5-HT2A receptor binding assay ([3H]-Ketanserin)
Condition: read-out: Ki (nM) 5-HT2A; rat cortex membrane, [3H]-Ketanserin
For each entry below, report its log10 of Ki value.
Please keep in mind that the values are log10 of Ki expressed in nM.

O=C1NCCc2ccc(OCCCN3CCN(c4cccc(Cl)c4Cl)CC3)cc21 [A, reference compound] : 1.47

State the recorded log10 of Ki for every item in the following list.
1. CN1COc2ccc(OCCCN3CCC(c4noc5cc(F)ccc45)CC3)cc2C1=O
2. Cc1nc2ccc(OCCCN3CCN(c4cccc(C(F)(F)F)c4)CC3)cc2c(=O)n1C
3. CN1CCc2ccc(OCCCN3CCN(c4ccc5c(c4)OCO5)CC3)cc2C1=O

1. 0.56
2. 0.99
3. 0.56

State the recorded log10 of Ki for every item in the following list.
1. COc1ccccc1N1CCN(CCCOc2ccc3c(c2)C(=O)N(C)CC3)CC1
2. CN1CCc2ccc(OCCCCN3CCC(c4noc5cc(F)ccc45)CC3)cc2C1=O
3. CN1CCc2ccc(OCCCN3CCN(c4ccccc4F)CC3)cc2C1=O

[0.51, 1.28, 1.51]

----------
Assay details: Acute toxicity study (rats)
Condition: both sexes, KM, in vivo, po, 2000 mg/kg; rat, intragastric
For each entry below, report its LD50 at 3 days value.
Answers are plain numbers, in mg/kg.

State the recorded LD50 at 3 days for every item in the following list.
1. CN1CCc2ccc(OCCCN3CCN(c4nsc5ccccc45)CC3)cc2C1=O
2. Cc1nc2n(c(=O)c1CCN1CCC(c3noc4cc(F)ccc34)CC1)CCCC2 [risperidone, reference compound]
3. COc1ccccc1N1CCN(CCCOc2ccc3c(c2)C(=O)N(C)CC3)CC1
4. CN1CCc2ccc(OCCCN3CCN(c4ncccn4)CC3)cc2C1=O
5. CN1CCc2ccc(OCCCN3CCC(c4noc5cc(F)ccc45)CC3)cc2C1=O

1. 155
2. 113
3. 198
4. 146
5. 168

----------
System under test: 5-HT1A (Rattus norvegicus (Rat), UniProt P19327)
Sequence (P19327 whole entry): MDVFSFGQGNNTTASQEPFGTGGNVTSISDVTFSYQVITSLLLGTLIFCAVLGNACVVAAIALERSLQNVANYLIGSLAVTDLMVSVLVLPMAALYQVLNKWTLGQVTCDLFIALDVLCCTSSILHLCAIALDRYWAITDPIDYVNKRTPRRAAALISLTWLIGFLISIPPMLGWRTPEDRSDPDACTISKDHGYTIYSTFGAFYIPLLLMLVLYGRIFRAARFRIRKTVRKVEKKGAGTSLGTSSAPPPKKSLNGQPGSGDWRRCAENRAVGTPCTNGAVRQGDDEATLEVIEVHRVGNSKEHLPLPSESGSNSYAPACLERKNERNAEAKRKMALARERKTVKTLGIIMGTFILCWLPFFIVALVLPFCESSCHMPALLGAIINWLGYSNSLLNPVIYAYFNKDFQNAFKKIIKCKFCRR
Assay details: 5-HT1A receptor binding assay (3H-8-OH-DPAT)
Condition: rat cortex membrane, 3H-8-OH-DPAT
Measurement label: Ki (nM)
One number for each entry, in nM.

Cn1cnc2ccc(OCCCCN3CCN(Cc4ccccc4)CC3)cc2c1=O : 56.9
CN1CCc2ccc(OCC(O)CN3CCC(c4noc5cc(F)ccc45)CC3)cc2C1=O (stereo not drawn) : 3.9
CN1CCc2ccc(OCCCN3CCN(c4ccc5ccccc5n4)CC3)cc2C1=O : 157
CN1CCc2ccc(OCCCN3CCN(c4ccc5c(c4)OCO5)CC3)cc2C1=O : 12.8
CN1CCc2ccc(OCCCN3CCN(c4nsc5ccccc45)CC3)cc2C1=O : 8.8

State the recorded Ki for every item in the following list.
1. Cc1cc(OCCCN2CCC(c3noc4cc(F)ccc34)CC2)cc2c1CCN(C)C2=O
2. CN1CCc2ccc(OCCCN3CCN(c4ncccn4)CC3)cc2C1=O

1. 2.8
2. 8.8

----------
Tested on: MK-801 induced high activity in mice
Assay details: MK-801 induced high activity
Format: in vivo
Condition: Mus musculus, po
For each entry below, report its ED50 value.
Answers are plain numbers, in mg/kg.

State the recorded ED50 for every item in the following list.
1. CN1CCc2ccc(OCCCN3CCN(c4ncccn4)CC3)cc2C1=O [Compound 24]
2. O=C(CCCN1CCC(O)(c2ccc(Cl)cc2)CC1)c1ccc(F)cc1 [haloperidol, reference compound]
3. CN1CCc2ccc(OCCCN3CCN(c4nsc5ccccc45)CC3)cc2C1=O [Compound 14]

0.18
0.1
0.07

State the recorded ED50 for every item in the following list.
1. CN1CCN(C2=Nc3cc(Cl)ccc3Nc3ccccc32)CC1 [clozapine, reference compound]
2. COc1ccccc1N1CCN(CCCOc2ccc3c(c2)C(=O)N(C)CC3)CC1 [Compound 22]

[2.28, 0.12]

----------
System under test: Histamine H1 receptor (Cavia porcellus (Guinea pig))
Sequence (P31389 whole entry): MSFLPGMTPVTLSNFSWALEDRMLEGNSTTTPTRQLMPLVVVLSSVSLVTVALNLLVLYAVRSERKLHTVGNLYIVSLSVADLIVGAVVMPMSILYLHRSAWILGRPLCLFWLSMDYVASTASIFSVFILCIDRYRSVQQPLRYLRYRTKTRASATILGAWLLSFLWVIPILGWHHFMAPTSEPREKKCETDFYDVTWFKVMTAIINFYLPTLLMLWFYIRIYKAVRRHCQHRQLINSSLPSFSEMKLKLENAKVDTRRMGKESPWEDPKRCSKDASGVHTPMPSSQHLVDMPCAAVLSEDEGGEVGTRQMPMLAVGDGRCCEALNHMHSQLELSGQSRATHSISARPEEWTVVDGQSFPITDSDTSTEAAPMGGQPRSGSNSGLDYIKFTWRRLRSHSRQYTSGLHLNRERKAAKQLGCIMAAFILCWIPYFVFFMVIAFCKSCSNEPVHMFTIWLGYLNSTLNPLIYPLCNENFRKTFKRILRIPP
Assay details: Histamine H1 receptor binding assay (3H-pyrilamine)
Condition: guinea pig cerebellum membrane, 3H-pyrilamine
Measurement label: Ki

Past entries and their recorded results:
CCN1CCc2ccc(OCCCN3CCC(c4noc5cc(F)ccc45)CC3)cc2C1=O [Compound 7] : > 2000 nM
Cn1c(=O)c2cc(OCCCN3CCN(c4cccc5sccc45)CC3)ccc2n(C)c1=O [D, reference compound] : 154 nM
COc1ccccc1N1CCN(CCCOc2ccc3c(c2)C(=O)N(C)CC3)CC1 [Compound 22] : > 2000 nM
CN1CCc2ccc(OCCCN3CCC(C(=O)c4ccc(F)cc4)CC3)cc2C1=O [Compound 25] : > 2000 nM

State the recorded Ki for every item in the following list.
1. CN1CCc2ccc(OCCCN3CCN(c4ncccn4)CC3)cc2C1=O [Compound 24]
2. CN1CCc2c(F)cc(OCCCN3CCC(c4noc5cc(F)ccc45)CC3)cc2C1=O [Compound 9]
3. O=C1NCCc2ccc(OCCCN3CCN(c4cccc(Cl)c4Cl)CC3)cc21 [A, reference compound]
4. O=C1NCCc2ccc(OCCCN3CCN(c4ccc5sccc5c4)CC3)cc21 [C, reference compound]

["> 2000 nM", "> 2000 nM", "89.6 nM", "138 nM"]

----------
For each entry below, report its LD50 value.
Assay details: Acute toxicity study (mice)
Format: in vivo
Condition: both sexes, KM, mouse, in vivo, po, intragastric
Answers are plain numbers, in mg/kg.

Past entries and their recorded results:
CN1CCc2ccc(OCCCN3CCN(c4nsc5ccccc45)CC3)cc2C1=O : 202
CN1CCc2ccc(OCCCN3CCC(c4noc5cc(F)ccc45)CC3)cc2C1=O : 258
COc1ccccc1N1CCN(CCCOc2ccc3c(c2)C(=O)N(C)CC3)CC1 : 311

--- query ---
Note LD50 for the compound shown: CN1CCc2ccc(OCCCN3CCN(c4ncccn4)CC3)cc2C1=O
190

----------
System under test: 5-HT1A (Rattus norvegicus (Rat), UniProt P19327)
Assay details: 5-HT1A receptor binding assay (3H-8-OH-DPAT)
Condition: rat cortex membrane, 3H-8-OH-DPAT
Measurement label: Ki (nM)
One number for each entry, in nM.

Past entries and their recorded results:
CN1CCc2ccc(OCCCCN3CCN(c4cccc(C(F)(F)F)c4)CC3)cc2C1=O [Compound 3] : 11.8
Cn1cnc2ccc(OCCCCN3CCN(c4ccc(F)cc4)CC3)cc2c1=O [Compound 29] : 259

--- query ---
Note Ki for the molecule shown: CN1CCc2ccc(OCCCN3CCN(c4cccc5ccccc45)CC3)cc2C1=O [Compound 6]
46.6

----------
System under test: D2 (Rattus norvegicus (Rat), UniProt P61169)
Sequence (P61169 whole entry): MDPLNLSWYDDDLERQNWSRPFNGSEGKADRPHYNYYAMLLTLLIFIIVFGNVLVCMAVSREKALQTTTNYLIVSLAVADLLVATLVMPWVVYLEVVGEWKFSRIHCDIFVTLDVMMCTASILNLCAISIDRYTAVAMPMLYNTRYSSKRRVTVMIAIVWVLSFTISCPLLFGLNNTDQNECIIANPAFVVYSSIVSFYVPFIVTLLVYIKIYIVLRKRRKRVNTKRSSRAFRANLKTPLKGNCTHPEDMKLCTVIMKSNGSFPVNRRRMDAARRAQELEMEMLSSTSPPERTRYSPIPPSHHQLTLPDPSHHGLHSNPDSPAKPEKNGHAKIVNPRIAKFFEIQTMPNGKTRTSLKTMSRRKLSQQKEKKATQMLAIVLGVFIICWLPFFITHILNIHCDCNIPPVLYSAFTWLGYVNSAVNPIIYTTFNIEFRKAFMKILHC
Assay details: D2 receptor binding assay (3H-Spiperone)
Condition: read-out: Ki (nM) D2; rat striatum membrane, 3H-Spiperone
Measurement label: Ki (nM)
One number for each entry, in nM.

Past entries and their recorded results:
O=C1NCCc2ccc(OCCCN3CCN(c4cccc(Cl)c4Cl)CC3)cc21 [A, reference compound] : 21.2
Cn1cnc2ccc(OCCCCN3CCN(c4cccc(C(F)(F)F)c4)CC3)cc2c1=O : 24.8

Note Ki for the compound shown: Cc1nc2ccc(OCCCN3CCN(c4cccc(C(F)(F)F)c4)CC3)cc2c(=O)n1C
21.8

----------
System: catalepsy in mice
Assay details: Catalepsy assay
Condition: mice, ratio of ED50 values
Procedure: The durations of the mice to maintain the posture with the two forepaws on the bars were recorded, and 30 s of spasticity without moving was considered as the positive response. In the case the forepaws of the mice were not put down persistently, the observation was terminated at 60 s. The numbers of animals with positive response in each of the compound dosage groups were counted.
For each entry below, report its Catalepsy/MK-801 induced high activity value.
Answers are plain numbers.

Past entries and their recorded results:
CN1CCc2ccc(OCCCN3CCN(c4ncccn4)CC3)cc2C1=O : 261
COc1ccccc1N1CCN(CCCOc2ccc3c(c2)C(=O)N(C)CC3)CC1 : 433
O=C(CCCN1CCC(O)(c2ccc(Cl)cc2)CC1)c1ccc(F)cc1 [haloperidol, reference compound] : 4.40

--- query ---
Note Catalepsy/MK-801 induced high activity for the compound shown: CN1CCc2ccc(OCCCN3CCN(c4nsc5ccccc45)CC3)cc2C1=O
457

----------
System under test: 5-HT2A (Rattus norvegicus (Rat))
Assay details: 5-HT2A receptor binding assay ([3H]-Ketanserin)
Condition: read-out: Ki (nM) 5-HT2A; rat cortex membrane, [3H]-Ketanserin
Please map values of Ki to classes as shown: b0 (below 6 nM), b1 (6 nM to below 60 nM), b2 (60 nM or more)

Below are worked cases with known answers.
Cc1cc(OCCCN2CCC(c3noc4cc(F)ccc34)CC2)cc2c1CCN(C)C2=O [Compound 8] : b0
CN1CCc2ccc(OCCCN3CCN(c4ncccn4)CC3)cc2C1=O [Compound 24] : b1
Cn1cnc2ccc(OCCCCN3CCc4ccccc4C3)cc2c1=O [Compound 27] : b2
CN1CCc2ccc(OCCCN3CCN(c4ccccc4)CC3)cc2C1=O [Compound 16] : b2
O=C1NCCc2ccc(OCCCN3CCC(c4noc5cc(F)ccc45)CC3)cc21 [Compound 12] : b0

Class for Cn1cnc2ccc(OCCCCN3CCN(c4cccc(C(F)(F)F)c4)CC3)cc2c1=O [Compound 28] ?
b0

Class for CN1CCc2ccc(OCCCN3CCN(c4ccc5ccccc5n4)CC3)cc2C1=O [Compound 15] ?
b2

Class for CN1CCc2ccc(OCCCCN3CCN(c4cccc(C(F)(F)F)c4)CC3)cc2C1=O [Compound 3] ?
b1

Class for CN1CCc2ccc(OCC(O)CN3CCC(c4noc5cc(F)ccc45)CC3)cc2C1=O (stereo not drawn) [Compound 4] ?
b1

Class for CCN1CCc2ccc(OCCCN3CCC(c4noc5cc(F)ccc45)CC3)cc2C1=O [Compound 7] ?
b0

Class for CN1CCc2ccc(OCCCN3CCN(c4cccc5ccccc45)CC3)cc2C1=O [Compound 6] ?
b1

Class for CN1CCc2ccc(OCCCN3CCN(c4ccc(F)cc4)CC3)cc2C1=O [Compound 19] ?
b2

Class for CN1CCc2ccc(OCCCN3CCC(c4noc5cc(F)ccc45)CC3)cc2C1=O [Compound 5] ?
b0

Class for CN1CCc2c(F)cc(OCCCN3CCC(c4noc5cc(F)ccc45)CC3)cc2C1=O [Compound 9] ?
b0

Class for CN1CCc2ccc(OCCCN3CCN(c4ccccc4Cl)CC3)cc2C1=O [Compound 18] ?
b2

Class for Cn1cnc2ccc(OCCCCN3CCN(c4ccc(F)cc4)CC3)cc2c1=O [Compound 29] ?
b2

Class for CN1CCc2ccc(OCCCN3CCN(c4nsc5ccccc45)CC3)cc2C1=O [Compound 14] ?
b1

Class for CN1CCc2ccc(OCCCN3CCC(C(=O)c4ccc(F)cc4)CC3)cc2C1=O [Compound 25] ?
b1
